MEASURED_TARGET: human ether-à-go-go-related gene (hERG) potassium channel (human, UniProt Q12809);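 also: peak tail current of the secondary pulse compared with the same well before compound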
Sequence (Q12809 whole entry, looked up): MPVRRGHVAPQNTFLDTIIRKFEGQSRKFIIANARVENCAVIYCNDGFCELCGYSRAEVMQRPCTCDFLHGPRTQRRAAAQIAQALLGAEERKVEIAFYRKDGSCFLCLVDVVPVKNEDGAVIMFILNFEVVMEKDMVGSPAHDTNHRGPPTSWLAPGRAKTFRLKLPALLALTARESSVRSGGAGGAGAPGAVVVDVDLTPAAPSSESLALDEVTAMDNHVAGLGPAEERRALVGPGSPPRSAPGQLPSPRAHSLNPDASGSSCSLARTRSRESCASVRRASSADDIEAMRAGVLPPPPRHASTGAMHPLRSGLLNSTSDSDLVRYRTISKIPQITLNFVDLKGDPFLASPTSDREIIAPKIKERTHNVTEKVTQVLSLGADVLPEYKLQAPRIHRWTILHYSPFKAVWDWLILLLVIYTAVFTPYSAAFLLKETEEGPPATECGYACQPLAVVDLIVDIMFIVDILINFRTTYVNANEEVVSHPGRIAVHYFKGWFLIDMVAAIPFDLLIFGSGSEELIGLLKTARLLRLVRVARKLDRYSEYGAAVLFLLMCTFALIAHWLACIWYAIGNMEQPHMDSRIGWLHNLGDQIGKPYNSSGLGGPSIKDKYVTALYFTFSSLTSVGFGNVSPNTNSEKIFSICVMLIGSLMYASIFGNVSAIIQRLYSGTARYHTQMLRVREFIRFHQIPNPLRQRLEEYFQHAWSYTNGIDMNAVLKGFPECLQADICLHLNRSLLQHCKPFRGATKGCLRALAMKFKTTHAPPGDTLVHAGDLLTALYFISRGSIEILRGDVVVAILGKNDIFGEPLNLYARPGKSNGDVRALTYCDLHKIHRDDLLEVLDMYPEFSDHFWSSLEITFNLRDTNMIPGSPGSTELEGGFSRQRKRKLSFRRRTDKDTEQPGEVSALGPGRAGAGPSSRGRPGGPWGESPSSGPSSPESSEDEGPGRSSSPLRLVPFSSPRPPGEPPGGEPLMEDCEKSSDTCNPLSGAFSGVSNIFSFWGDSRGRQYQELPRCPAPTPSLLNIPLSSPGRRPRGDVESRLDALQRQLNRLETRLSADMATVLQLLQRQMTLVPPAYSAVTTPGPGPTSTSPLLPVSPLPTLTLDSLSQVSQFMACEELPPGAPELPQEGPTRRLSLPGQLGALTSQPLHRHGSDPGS
EXPERIMENT_NOTES: primary screen, population patch clamp on CHO cells stably expressing hERG; higher = less effect of the substance
Among all 310,000 compounds or so, about 14,000 (4.5%) showed an effect of 50% or more. Effects have a minus sign here. The full list was thinned out, with strong results kept by preference.
Assignment: determine reported hERG current change (%, negative = inhibition) at 10uM for the given compounds.
Answer in %, number only, no unit symbol.

Value lookup for hERG current change (%, negative = inhibition) at 10uM; key = CC1CCCCC1NC(=O)c1ccc2c(c1)OCCO2 (stereo not shown)
3.51

Sample Cc1ccc(S(=O)(=O)N2CCN(C(=O)c3ccco3)CC2)cc1C — what was its hERG current change (%, negative = inhibition) at 10uM?
-4.01

Entry under review: CCc1ccc(-c2cc(C)no2)cc1S(=O)(=O)N1CCN(c2ccccc2)CC1 . Reported hERG current change (%, negative = inhibition) at 10uM?
3.41

I'd like to know its hERG current change (%, negative = inhibition) at 10uM. The compound in question is O=C(Oc1cccc(-n2cnnn2)c1)c1ccco1
6.57

What value of hERG current change (%, negative = inhibition) at 10uM has been recorded for this entry: O=C(NCc1cccnc1)c1ccc(COc2ccccc2Cl)cc1
4.47

Could you share which hERG current change (%, negative = inhibition) at 10uM value was measured for CC(C)c1ccc(NC(=O)c2ccc(Br)o2)cc1 ?
3.82

Recorded hERG current change (%, negative = inhibition) at 10uM for COc1ccc(CCC(=O)OCC(=O)Nc2sccc2C(N)=O)cc1 , please?
-5.4

Item under review: CCc1ccc(-c2cc(C)no2)cc1S(=O)(=O)N1CCN(C(=O)c2ccco2)CC1 . Reported hERG current change (%, negative = inhibition) at 10uM?
-59.6

Value lookup for hERG current change (%, negative = inhibition) at 10uM; key = Cc1cc(-c2ccc(C)c(S(=O)(=O)N3CCN(C(=O)c4ccco4)CC3)c2)on1
-51.8

# query: hERG current change (%, negative = inhibition) at 10uM of entry CCc1cccc(NC(=O)CN(c2ccc(C)cc2)S(=O)(=O)c2c(C)noc2C)c1
8.14
